Origin of the recorded values: ChEMBL document CHEMBL3301361

Procedure details: in vitro
Conditions used: human, microsomes
Assign microsomal CLint to each entry below.

Worked cases, microsomal CLint given:
O=c1[nH]c2c(O)ccc([C@@H](O)CNCCOc3cccc(CNCCc4ccccc4F)c3)c2s1 = 14 µL/min/mg
COC(=O)[C@H](c1ccccc1Cl)N1CCc2sccc2C1 = > 150 µL/min/mg
CCCCc1nc2c(N)nc3ccccc3c2n1Cc1ccccc1 = 6 µL/min/mg
COc1ccccc1C(=O)Nc1ccc(Cc2ccncc2)cc1 = 7 µL/min/mg
CCc1cnn2c(NCc3ccc[n+]([O-])c3)cc(N3CCCC[C@H]3CCO)nc12 = > 150 µL/min/mg

Record microsomal CLint per entry; entries follow.
1. CNCc1ccc(-c2[nH]c3cc(F)cc4c3c2CCNC4=O)cc1
2. COc1ccc2nc(C)cc(N3CC(CNC(=O)C4CC4)OC3=O)c2c1 (centres undefined)
3. C[C@H](c1nc2ncccc2c(=O)n1-c1ccc(Cl)cc1)N(CC1CCS(=O)(=O)CC1)C(=O)Cc1ccc(C(F)(F)F)c(F)c1
4. Cc1ccc(S(=O)(=O)Nc2c(C(=O)N[C@@H](C)C(C)(C)C)c(C)nn2C(C)(C)C)cc1

Solution:
["5.5 µL/min/mg", "8.91 µL/min/mg", "5.25 µL/min/mg", "37 µL/min/mg"]
